These data points were gathered from patent US20240343814A1.

molecular target: Recombinant human his-tagged IGF 1R extracellular domain protein (human) (UniProt P08069); test: SPR, captured IgG, IGF-1R ECD-his analyte, dissociation pH 7.4
Recorded koff by entry
Provide the reading as a plain figure in s⁻¹.

Examples with answers:
VRDN-02557 (antibody, V domains shown) VH: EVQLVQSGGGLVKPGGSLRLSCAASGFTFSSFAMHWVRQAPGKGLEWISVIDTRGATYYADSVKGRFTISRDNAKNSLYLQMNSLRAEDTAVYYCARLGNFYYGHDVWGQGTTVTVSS VL: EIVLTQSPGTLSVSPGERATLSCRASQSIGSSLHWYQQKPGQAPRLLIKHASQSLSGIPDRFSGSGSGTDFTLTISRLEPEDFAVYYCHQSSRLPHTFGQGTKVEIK; 0.00119
VRDN-02509 (antibody, V domains shown) VH: EVQLVQSGGGLVKPGGSLRLSCAASGFTFSSFAHHWVRQAPGKGLEWISVIDTRGATYYADSVKGRFTISRDNAKNSLYLQMNSLRAEDTAVYYCARLGNFYYGMDVWGQGTTVTVSS VL: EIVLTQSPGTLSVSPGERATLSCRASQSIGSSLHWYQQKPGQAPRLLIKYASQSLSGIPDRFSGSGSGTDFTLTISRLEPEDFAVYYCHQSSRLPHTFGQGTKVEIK; 4.81e-05

Now consider the entry below.
Return reported koff; argument: VRDN-02502 (antibody, V domains shown) VH: EVQLVQSGGGLVKPGGSLRLSCAASGHTFSSFAMHWVRQAPGKGLEWISVIDTRGATYYADSVKGRFTISRDNAKNSLYLQMNSLRAEDTAVYYCARLGNFYYGMDVWGQGTTVTVSS VL: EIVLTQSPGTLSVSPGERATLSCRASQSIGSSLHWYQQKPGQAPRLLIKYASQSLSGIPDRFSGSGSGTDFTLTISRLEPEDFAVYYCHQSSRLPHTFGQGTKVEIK
4.1e-06
